# ASSAY_CONTEXT: in water, 298.15 K
REPORTED_ENDPOINT: solubility (mole fraction)
Enter the number alone.

Query :: Give recorded solubility (mole fraction). `C#C[C@]1(O)CC[C@H]2[C@@H]3CCC4=CC(=O)CC[C@@H]4[C@H]3C(=C)C[C@@]21CC`
Result :: 3.1e-05

###

# ASSAY_CONTEXT: in acetone, 298.15 K
REPORTED_ENDPOINT: solubility (mole fraction)
Enter the number alone.

Query :: Give recorded solubility (mole fraction). `C#C[C@]1(O)CC[C@H]2[C@@H]3CCC4=CC(=O)CC[C@@H]4[C@H]3C(=C)C[C@@]21CC`
Result :: 0.0198

###

# ASSAY_CONTEXT: in DMF, 308.15 K
REPORTED_ENDPOINT: solubility (mole fraction)
Enter the number alone.

Query :: Give recorded solubility (mole fraction). `C#C[C@]1(O)CC[C@H]2[C@@H]3CCC4=CC(=O)CC[C@@H]4[C@H]3C(=C)C[C@@]21CC`
Result :: 0.101

###

# ASSAY_CONTEXT: in ethyl acetate, 273.15 K
REPORTED_ENDPOINT: solubility (mole fraction)
Enter the number alone.

Query :: Give recorded solubility (mole fraction). `C#C[C@]1(O)CC[C@H]2[C@@H]3CCC4=CC(=O)CC[C@@H]4[C@H]3C(=C)C[C@@]21CC`
Result :: 0.0189

###

# ASSAY_CONTEXT: in ethanol, 278.15 K
REPORTED_ENDPOINT: solubility (mole fraction)
Enter the number alone.

Query :: Give recorded solubility (mole fraction). `C#C[C@]1(O)CC[C@H]2[C@@H]3CCC4=CC(=O)CC[C@@H]4[C@H]3C(=C)C[C@@]21CC`
Result :: 0.00209

###

# ASSAY_CONTEXT: in n-propanol, 288.15 K
REPORTED_ENDPOINT: solubility (mole fraction)
Enter the number alone.

Query :: Give recorded solubility (mole fraction). `C#C[C@]1(O)CC[C@H]2[C@@H]3CCC4=CC(=O)CC[C@@H]4[C@H]3C(=C)C[C@@]21CC`
Result :: 0.00657

###

# ASSAY_CONTEXT: in acetone, 323.15 K
REPORTED_ENDPOINT: solubility (mole fraction)
Enter the number alone.

Query :: Give recorded solubility (mole fraction). `C#C[C@]1(O)CC[C@H]2[C@@H]3CCC4=CC(=O)CC[C@@H]4[C@H]3C(=C)C[C@@]21CC`
Result :: 0.0335

###

# ASSAY_CONTEXT: in methyl acetate, 313.15 K
REPORTED_ENDPOINT: solubility (mole fraction)
Enter the number alone.

Query :: Give recorded solubility (mole fraction). `C#C[C@]1(O)CC[C@H]2[C@@H]3CCC4=CC(=O)CC[C@@H]4[C@H]3C(=C)C[C@@]21CC`
Result :: 0.025

###

# ASSAY_CONTEXT: in ethanol, 303.15 K
REPORTED_ENDPOINT: solubility (mole fraction)
Enter the number alone.

Query :: Give recorded solubility (mole fraction). `C#C[C@]1(O)CC[C@H]2[C@@H]3CCC4=CC(=O)CC[C@@H]4[C@H]3C(=C)C[C@@]21CC`
Result :: 0.00494

###

# ASSAY_CONTEXT: in isopropanol, 303.15 K
REPORTED_ENDPOINT: solubility (mole fraction)
Enter the number alone.

Query :: Give recorded solubility (mole fraction). `C#C[C@]1(O)CC[C@H]2[C@@H]3CCC4=CC(=O)CC[C@@H]4[C@H]3C(=C)C[C@@]21CC`
Result :: 0.0115

###

# ASSAY_CONTEXT: in acetone, 278.15 K
REPORTED_ENDPOINT: solubility (mole fraction)
Enter the number alone.

Query :: Give recorded solubility (mole fraction). `C#C[C@]1(O)CC[C@H]2[C@@H]3CCC4=CC(=O)CC[C@@H]4[C@H]3C(=C)C[C@@]21CC`
Result :: 0.0133

###

# ASSAY_CONTEXT: in water, 303.15 K
REPORTED_ENDPOINT: solubility (mole fraction)
Enter the number alone.

Query :: Give recorded solubility (mole fraction). `C#C[C@]1(O)CC[C@H]2[C@@H]3CCC4=CC(=O)CC[C@@H]4[C@H]3C(=C)C[C@@]21CC`
Result :: 3.65e-05

###

# ASSAY_CONTEXT: in water, 313.15 K
REPORTED_ENDPOINT: solubility (mole fraction)
Enter the number alone.

Query :: Give recorded solubility (mole fraction). `C#C[C@]1(O)CC[C@H]2[C@@H]3CCC4=CC(=O)CC[C@@H]4[C@H]3C(=C)C[C@@]21CC`
Result :: 4.91e-05

###

# ASSAY_CONTEXT: in ethyl acetate, 318.15 K
REPORTED_ENDPOINT: solubility (mole fraction)
Enter the number alone.

Query :: Give recorded solubility (mole fraction). `C#C[C@]1(O)CC[C@H]2[C@@H]3CCC4=CC(=O)CC[C@@H]4[C@H]3C(=C)C[C@@]21CC`
Result :: 0.059

###

# ASSAY_CONTEXT: in ethyl acetate, 288.15 K
REPORTED_ENDPOINT: solubility (mole fraction)

Query :: Give recorded solubility (mole fraction). `C#C[C@]1(O)CC[C@H]2[C@@H]3CCC4=CC(=O)CC[C@@H]4[C@H]3C(=C)C[C@@]21CC`
Result :: 0.0291

###

# ASSAY_CONTEXT: in isopropanol, 298.15 K
REPORTED_ENDPOINT: solubility (mole fraction)
Enter the number alone.

Query :: Give recorded solubility (mole fraction). `C#C[C@]1(O)CC[C@H]2[C@@H]3CCC4=CC(=O)CC[C@@H]4[C@H]3C(=C)C[C@@]21CC`
Result :: 0.00994

###

# ASSAY_CONTEXT: in ethyl acetate, 283.15 K
REPORTED_ENDPOINT: solubility (mole fraction)

Query :: Give recorded solubility (mole fraction). `C#C[C@]1(O)CC[C@H]2[C@@H]3CCC4=CC(=O)CC[C@@H]4[C@H]3C(=C)C[C@@]21CC`
Result :: 0.0249

###

# ASSAY_CONTEXT: in acetone, 308.15 K
REPORTED_ENDPOINT: solubility (mole fraction)
Enter the number alone.

Query :: Give recorded solubility (mole fraction). `C#C[C@]1(O)CC[C@H]2[C@@H]3CCC4=CC(=O)CC[C@@H]4[C@H]3C(=C)C[C@@]21CC`
Result :: 0.0248

###

# ASSAY_CONTEXT: in ethanol, 313.15 K
REPORTED_ENDPOINT: solubility (mole fraction)
Enter the number alone.

Query :: Give recorded solubility (mole fraction). `C#C[C@]1(O)CC[C@H]2[C@@H]3CCC4=CC(=O)CC[C@@H]4[C@H]3C(=C)C[C@@]21CC`
Result :: 0.00695

###

# ASSAY_CONTEXT: in methyl acetate, 318.15 K
REPORTED_ENDPOINT: solubility (mole fraction)
Enter the number alone.

Query :: Give recorded solubility (mole fraction). `C#C[C@]1(O)CC[C@H]2[C@@H]3CCC4=CC(=O)CC[C@@H]4[C@H]3C(=C)C[C@@]21CC`
Result :: 0.0271

###

# ASSAY_CONTEXT: in ethanol, 323.15 K
REPORTED_ENDPOINT: solubility (mole fraction)
Enter the number alone.

Query :: Give recorded solubility (mole fraction). `C#C[C@]1(O)CC[C@H]2[C@@H]3CCC4=CC(=O)CC[C@@H]4[C@H]3C(=C)C[C@@]21CC`
Result :: 0.00967

###

# ASSAY_CONTEXT: in isopropanol, 308.15 K
REPORTED_ENDPOINT: solubility (mole fraction)
Enter the number alone.

Query :: Give recorded solubility (mole fraction). `C#C[C@]1(O)CC[C@H]2[C@@H]3CCC4=CC(=O)CC[C@@H]4[C@H]3C(=C)C[C@@]21CC`
Result :: 0.0132

###

# ASSAY_CONTEXT: in DMF, 293.15 K
REPORTED_ENDPOINT: solubility (mole fraction)

Query :: Give recorded solubility (mole fraction). `C#C[C@]1(O)CC[C@H]2[C@@H]3CCC4=CC(=O)CC[C@@H]4[C@H]3C(=C)C[C@@]21CC`
Result :: 0.0888

###

# ASSAY_CONTEXT: in acetone, 318.15 K
REPORTED_ENDPOINT: solubility (mole fraction)

Query :: Give recorded solubility (mole fraction). `C#C[C@]1(O)CC[C@H]2[C@@H]3CCC4=CC(=O)CC[C@@H]4[C@H]3C(=C)C[C@@]21CC`
Result :: 0.03

###

# ASSAY_CONTEXT: in DMF, 298.15 K
REPORTED_ENDPOINT: solubility (mole fraction)
Enter the number alone.

Query :: Give recorded solubility (mole fraction). `C#C[C@]1(O)CC[C@H]2[C@@H]3CCC4=CC(=O)CC[C@@H]4[C@H]3C(=C)C[C@@]21CC`
Result :: 0.0965

###

# ASSAY_CONTEXT: in methyl acetate, 323.15 K
REPORTED_ENDPOINT: solubility (mole fraction)

Query :: Give recorded solubility (mole fraction). `C#C[C@]1(O)CC[C@H]2[C@@H]3CCC4=CC(=O)CC[C@@H]4[C@H]3C(=C)C[C@@]21CC`
Result :: 0.0294
